IC50 tested on His-tagged full-length RSK2 (RPS6KA3) (Homo sapiens, UniProt P51812): recorded values
Sequence (P51812 whole entry): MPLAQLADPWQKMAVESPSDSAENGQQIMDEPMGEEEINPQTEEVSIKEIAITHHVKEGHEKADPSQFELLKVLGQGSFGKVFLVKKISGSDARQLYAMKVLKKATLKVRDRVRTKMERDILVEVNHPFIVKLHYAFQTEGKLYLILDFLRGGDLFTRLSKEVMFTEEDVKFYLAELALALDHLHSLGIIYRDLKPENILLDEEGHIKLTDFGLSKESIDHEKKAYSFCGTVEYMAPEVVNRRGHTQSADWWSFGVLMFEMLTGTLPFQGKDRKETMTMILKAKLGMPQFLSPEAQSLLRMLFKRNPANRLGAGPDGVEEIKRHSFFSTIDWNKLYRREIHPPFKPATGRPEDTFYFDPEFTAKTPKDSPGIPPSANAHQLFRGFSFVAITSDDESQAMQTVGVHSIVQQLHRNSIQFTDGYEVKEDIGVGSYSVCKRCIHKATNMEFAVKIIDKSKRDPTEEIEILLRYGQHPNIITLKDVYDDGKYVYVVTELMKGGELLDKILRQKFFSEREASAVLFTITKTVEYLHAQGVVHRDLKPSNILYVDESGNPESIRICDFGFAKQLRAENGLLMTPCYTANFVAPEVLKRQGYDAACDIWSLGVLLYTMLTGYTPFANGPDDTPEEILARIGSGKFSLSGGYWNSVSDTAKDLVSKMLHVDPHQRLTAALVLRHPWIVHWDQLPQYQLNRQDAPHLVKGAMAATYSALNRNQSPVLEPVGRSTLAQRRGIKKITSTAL

Take a look at these entries with their results.
// query // lookup IC50 for C[C@@H]1C(=O)N(c2ccc(N3CCN(C)CC3)c(C#N)c2)c2cnc(Nc3cnc4[nH]ncc4c3)nc2N1[C@H]1CC[C@H](C)CC1 [compound 252]
// result ≤ 100 nM

// query // lookup IC50 for C[C@@H]1C(=O)N(c2cccc(Cl)c2)c2cnc(Nc3ccc4[nH]ncc4c3)nc2N1C1CCCCC1 [Example 31]
// result ≤ 100 nM

// query // lookup IC50 for COc1n[nH]c2ccc(Nc3ncc4c(n3)N(C3CCCCC3)[C@H](C)C(=O)N4c3cccc(C#N)c3)cc12 [compound 116]
// result ≤ 100 nM

// query // lookup IC50 for C[C@@H]1C(=O)N(c2ccc(N3CCN(C)CC3)nc2)c2cnc(Nc3cc(F)c4[nH]ncc4c3)nc2N1C1CCOCC1 [compound 193]
// result ≤ 100 nM

// query // lookup IC50 for C[C@@H]1C(=O)N(c2ccc[n+]([O-])c2)c2cnc(Nc3cc(F)c4[nH]ncc4c3)nc2N1C1CCC(C)(C)CC1 [compound 304]
// result ≤ 100 nM

Further cases:
// query // lookup IC50 for C[C@@H]1C(=O)N(c2ccn(C)c(=O)c2)c2cnc(Nc3cnc4[nH]ncc4c3)nc2N1C1CCCCC1 [compound 175]
// result ≤ 100 nM

// query // lookup IC50 for COC(=O)c1ccc(Nc2ncc3c(n2)N(CCC(C)C)C(C)C(=O)N3c2ccccc2)cc1 (stereo not shown) [Example 9]
// result > 1000 nM
